The measured values listed here are drawn from patent US5753694A.

system: AMPA/kainate subtype of glutamate receptors; assay: Antagonism of kainate-evoked currents, perforated whole-cell patch-clamp on primary cultures of hippocampal neurons; assay type: cell-based, rat; details: cultured fetal rat hippocampal neurons; phase I block (early, reversible); read-out: EC50 of block of kainate-evoked current, first phase (phase I block)
pEC50: −log10 of the molar value.
OUTCOME MEASURE: pEC50

query: Requested read-out: pEC50. Entry: CC1(C)O[C@@H]2[C@@H](CO[C@@]3(COS(N)(=O)=O)OC(C)(C)O[C@@H]23)O1 [topiramate]
result: ~6.00
